# TEST DESCRIPTION: Cytotoxicity against human HFF-1 cells assessed as inhibition of cell growth incubated for 72 hrs by MTT assay
# Assay type: toxicity, cell-based
I'd appreciate it if you could supply IC50 at 72 h values for the items below.

Memo: O=C(Nc1cccc2cccnc12)c1cnccn1 , reported IC50 at 72 h: > 30 µM

Summary for this compound, Nc1ccn([C@@H]2O[C@H](CO)[C@@H](O)C2(F)F)c(=O)n1 [GEMCITABINE] : IC50 at 72 h is 14.4 µM

###

# Test system: MIA PaCa-2
# TEST DESCRIPTION: Cytotoxicity against human MIA PaCa-2 cells assessed as inhibition of cell growth incubated for 72 hrs by MTT assay
# Assay type: functional, cell-based
# SETTINGS: MIA PaCa-2, 72 h
METRIC NAME: pIC50
Interpret pIC50 as the negative base-10 log of the concentration measured in mol/L.

response.value for O=C(Nc1nccc2cccnc12)c1cnccn1 (field: pIC50) = 5.11

Noted for O=C(Nc1cccc2cccnc12)c1ncccn1 : its pIC50 reads 6.48

Form field pIC50, entry CC1=C(CC(=O)O)c2cc(F)ccc2/C1=C\c1ccc([S+](C)[O-])cc1 (configuration not stated) : 3.52

Form field pIC50, entry Cc1cnc(C(=O)Nc2cc(OCCC3CCN(C(=O)OC(C)(C)C)CC3)cc3cccnc23)cn1 : 5.05

Documented pIC50 of Cc1cnc(C(=O)Nc2cc(OCCNC(=O)OC(C)(C)C)cc3cccnc23)cn1 : 6.17

// pIC50 value for COc1cc(NC(=O)c2cnccn2)c2ncccc2c1 : 6.33

Record O=C(Nc1cccc2cccnc12)c1cnc(Cl)cn1 , field pIC50: 5.15

The compound O=C(Nc1cc(Cl)cc2cccnc12)c1ncccn1 showed pIC50 equal to 6.10

###

# System: MIA PaCa-2
# TEST DESCRIPTION: Cytotoxicity against human MIA PaCa-2 cells assessed as inhibition of cell growth incubated for 72 hrs by MTT assay
# Format: functional, cell-based
# SETTINGS: MIA PaCa-2, 72 h
Kindly state pIC50 for each of the entries shown.
Field pIC50 (float): negative decimal logarithm of the concentration in molar.

Measured on MIA PaCa-2, CC(C)(C)OC(=O)NCCOc1cc(NC(=O)c2cnccn2)c2ncccc2c1 has a documented pIC50 of 6.06

Form field, pIC50 with MIA PaCa-2, item O=C(Nc1ccc(Br)c2cccnc12)c1cnccn1 : 6.12

Response field pIC50 (MIA PaCa-2) for item Cc1cnc(C(=O)Nc2cc(Cl)cc3cccnc23)cn1 : 5.82

Entry COc1cc(NC(=O)c2ncccn2)c2ncccc2c1 ; assay system MIA PaCa-2; pIC50 recorded at 5.89

With MIA PaCa-2 as the test system, Cc1cnc(C(=O)Nc2cc(OCCN3CCOCC3)cc3cccnc23)cn1 showed pIC50 of 6.14
